READOUT_NAME: melting point

1. Cn1c(=O)nc(N)c2ccccc21    252 to 262 °C

Consider O=C1CC(c2ccc(Cl)cc2)ON1CC(O)CN1CCOCC1 (stereo unspecified) . Its measured melting point is 121 to 123 °C

###

Each entry below carries its recorded melting point.

Here are 6 compounds together with their reported answers.
1) COc1ccc(N2CCN(c3ccc(Nc4nc(-c5ccccc5)cs4)cc3)CC2)cc1    270 °C
2) CN(C)C1(c2ccccc2)CCC2(CC1)NCCc1c2[nH]c2ccc(-c3ccncc3)cc12 (stereo not given)    190 to 197 °C
3) COC(=O)C1=C(C)NC(=O)N(C)C1c1cccc(N)c1 (stereo not given)    205 to 209 °C
4) O=C1C2=C(C(=O)N1CCO)c1ccccc1CC2    120 to 121 °C
5) Cn1nc(-c2cccc(-n3ncc4cc(C(C)(C)C)cc(F)c4c3=O)c2CO)cc(Nc2cnc([C@H](O)CO)cn2)c1=O    218 to 224 °C
6) O=Cc1ccc(-c2ccccc2)c(F)c1    82 to 83 °C

Consider c1ccc2c(c1)cnn2-c1nc(NC2CCCCC2)c2ccccc2n1 . Its measured melting point is 278 to 281 °C

Consider Cc1ccc(C(F)(F)c2ccc(C3CCCN4CCS(=O)(=O)N=C34)cc2)cc1 (stereo not given) . Its measured melting point is 190 to 191 °C

Consider CC(C)(O)c1cnn2c(-c3ccc(F)c(-c4ccccc4C#N)c3)cnc2n1 . Its measured melting point is 187 °C

Consider CCOC(=O)C1=C(C)NC(=NC#N)N(C(=O)OCC)C1c1cccc([N+](=O)[O-])c1 (stereo not given) . Its measured melting point is 174 to 175 °C
